# credit: patent US6218168A

Tested on: serine acetyltransferase
protocol-text: Serine acetyltransferase enzyme activity test with and without L-cysteine (inhibitor constant Ki, specific activity)
Assay type: biochemical, E. coli
assay-context: Table 1a; serine acetyltransferase activity
recorded-endpoint: spec. act. (µmol/min/mg)
Give a bare numeral; the unit µmol/min/mg is implied.

*Q* Given cysEXXIII: triple mutant Ala167, Val237, Ser238 (protein, UniProt P0A9D4 1-273, looked up, variant T167A A237V G238S) Serine acetyltransferase: MSCEELEIVWNNIKAEARTLADCEPMLASFYHATLLKHENLGSALSYMLANKLSSPIMPAIAIREVVEEAYAADPEMIASAACDIQAVRTRDPAVDKYSTPLLYLKGFHALQAYRIGHWLWNQGRRALAIFLQNQVSVTFQVDIHPAAKIGRGIMLDHATGIVVGEAAVIENDVSILQSVTLGGTGKSGGDRHPKIREGVMIGAGAKILGNIEVGRGAKIGAGSVVLQPVPPHTTAVSVPARIVGKPDSDKPSMDMDQHFNGINHTFEYGDGI , respond with its spec. act..
*A* 0.085

*Q* Identify spec. act. associated with the molecule cysEIV: double mutant Ala237->Val237, Gly238->Ser238 (protein, UniProt P0A9D4 1-273, looked up, variant A237V G238S) Serine acetyltransferase: MSCEELEIVWNNIKAEARTLADCEPMLASFYHATLLKHENLGSALSYMLANKLSSPIMPAIAIREVVEEAYAADPEMIASAACDIQAVRTRDPAVDKYSTPLLYLKGFHALQAYRIGHWLWNQGRRALAIFLQNQVSVTFQVDIHPAAKIGRGIMLDHATGIVVGETAVIENDVSILQSVTLGGTGKSGGDRHPKIREGVMIGAGAKILGNIEVGRGAKIGAGSVVLQPVPPHTTAVSVPARIVGKPDSDKPSMDMDQHFNGINHTFEYGDGI
*A* 0.170

*Q* Respond only with spec. act. recorded for cysEVI: double mutant Ser238, Ile256 (protein, UniProt P0A9D4 1-273, looked up, variant G238S M256I) Serine acetyltransferase: MSCEELEIVWNNIKAEARTLADCEPMLASFYHATLLKHENLGSALSYMLANKLSSPIMPAIAIREVVEEAYAADPEMIASAACDIQAVRTRDPAVDKYSTPLLYLKGFHALQAYRIGHWLWNQGRRALAIFLQNQVSVTFQVDIHPAAKIGRGIMLDHATGIVVGETAVIENDVSILQSVTLGGTGKSGGDRHPKIREGVMIGAGAKILGNIEVGRGAKIGAGSVVLQPVPPHTTAASVPARIVGKPDSDKPSMDIDQHFNGINHTFEYGDGI
*A* 0.075

*Q* Identify spec. act. associated with the molecule cysEIII: feedback-resistant serine acetyltransferase allele, Gly165->Asp165 (protein, UniProt P0A9D4 1-273, looked up, variant G165D) Serine acetyltransferase: MSCEELEIVWNNIKAEARTLADCEPMLASFYHATLLKHENLGSALSYMLANKLSSPIMPAIAIREVVEEAYAADPEMIASAACDIQAVRTRDPAVDKYSTPLLYLKGFHALQAYRIGHWLWNQGRRALAIFLQNQVSVTFQVDIHPAAKIGRGIMLDHATGIVVDETAVIENDVSILQSVTLGGTGKSGGDRHPKIREGVMIGAGAKILGNIEVGRGAKIGAGSVVLQPVPPHTTAAGVPARIVGKPDSDKPSMDMDQHFNGINHTFEYGDGI
*A* 0.030

*Q* Give the reported spec. act. for this molecule. cysEX: mutant Thr167->Ala167 (protein, UniProt P0A9D4 1-273, looked up, variant T167A) Serine acetyltransferase: MSCEELEIVWNNIKAEARTLADCEPMLASFYHATLLKHENLGSALSYMLANKLSSPIMPAIAIREVVEEAYAADPEMIASAACDIQAVRTRDPAVDKYSTPLLYLKGFHALQAYRIGHWLWNQGRRALAIFLQNQVSVTFQVDIHPAAKIGRGIMLDHATGIVVGEAAVIENDVSILQSVTLGGTGKSGGDRHPKIREGVMIGAGAKILGNIEVGRGAKIGAGSVVLQPVPPHTTAAGVPARIVGKPDSDKPSMDMDQHFNGINHTFEYGDGI
*A* 0.156

*Q* Return the recorded spec. act. value; entry: cysEII: feedback-resistant serine acetyltransferase allele, Gly238->Ser238 (protein, UniProt P0A9D4 1-273, looked up, variant G238S) Serine acetyltransferase: MSCEELEIVWNNIKAEARTLADCEPMLASFYHATLLKHENLGSALSYMLANKLSSPIMPAIAIREVVEEAYAADPEMIASAACDIQAVRTRDPAVDKYSTPLLYLKGFHALQAYRIGHWLWNQGRRALAIFLQNQVSVTFQVDIHPAAKIGRGIMLDHATGIVVGETAVIENDVSILQSVTLGGTGKSGGDRHPKIREGVMIGAGAKILGNIEVGRGAKIGAGSVVLQPVPPHTTAASVPARIVGKPDSDKPSMDMDQHFNGINHTFEYGDGI
*A* 0.068

*Q* In one line, give reported spec. act. of the entry cysEXI: double mutant Thr167->Ala167, Gly245->Ser245 (protein, UniProt P0A9D4 1-273, looked up, variant T167A G245S) Serine acetyltransferase: MSCEELEIVWNNIKAEARTLADCEPMLASFYHATLLKHENLGSALSYMLANKLSSPIMPAIAIREVVEEAYAADPEMIASAACDIQAVRTRDPAVDKYSTPLLYLKGFHALQAYRIGHWLWNQGRRALAIFLQNQVSVTFQVDIHPAAKIGRGIMLDHATGIVVGEAAVIENDVSILQSVTLGGTGKSGGDRHPKIREGVMIGAGAKILGNIEVGRGAKIGAGSVVLQPVPPHTTAAGVPARIVSKPDSDKPSMDMDQHFNGINHTFEYGDGI .
*A* 0.117

*Q* Answer with the recorded spec. act. of cysEXII: triple mutant Lys97->Gln97, Gly238->Ser238, Phe267->Leu267 (protein, UniProt P0A9D4 1-273, looked up, variant K97Q G238S F267L) Serine acetyltransferase: MSCEELEIVWNNIKAEARTLADCEPMLASFYHATLLKHENLGSALSYMLANKLSSPIMPAIAIREVVEEAYAADPEMIASAACDIQAVRTRDPAVDQYSTPLLYLKGFHALQAYRIGHWLWNQGRRALAIFLQNQVSVTFQVDIHPAAKIGRGIMLDHATGIVVGETAVIENDVSILQSVTLGGTGKSGGDRHPKIREGVMIGAGAKILGNIEVGRGAKIGAGSVVLQPVPPHTTAASVPARIVGKPDSDKPSMDMDQHFNGINHTLEYGDGI only.
*A* 0.254
